- PROTOCOL TEXT: Tanguay_ZF_120hpf_MO24: Oregon State University Tanguay Lab 24 Hour Post-fertilization zebrafish Assay for Mortality (AID 2284389)
Activity calls are given as the source filed them. How the source made its calls: active means hit-call score of the fitted dose curve at least 0.9, where 1 is the maximum; inactive means score below 0.9.
Please state which outcome applies, choosing from True = active, False = inactive

Recorded results for 4 molecules are shown here.
Lab log entry: `O=C(O)CCC(F)(F)C(F)(F)C(F)(F)F` — outcome as called in the assay?
False

Lab log entry: `C=CC(=O)OCC(F)(F)C(F)(F)C(F)(F)COC(=O)C=C` — outcome as called in the assay?
True

Lab log entry: `CN(C(=O)C(F)(F)C(F)(F)C(F)(F)F)[Si](C)(C)C` — outcome as called in the assay?
False

Lab log entry: `NC(=O)C(F)(F)C(F)(F)C(F)(F)C(F)(F)C(F)(F)C(F)(F)C(F)(F)F` — outcome as called in the assay?
True

From here, focus on the item given below.
Lab log entry: `OCC(F)(F)C(F)(F)C(F)(F)C(F)(F)C(F)(F)C(F)(F)C(F)(F)C(F)(F)CO` — outcome as called in the assay?
True

---

- PROTOCOL TEXT: ATG_BRE_CIS: Attagene CIS-FACTORIAL HepG2 Assay for human Bone Morphogenetic Protein (BMP) Response Element (BRE) (AID 2282933)
- CONDITION CONTEXT: HepG2 BMP response element reporter, Attagene transcription factor profiling; actives raise or lower the signal
Active and inactive are the calls of the source. Rule for the calls: active = hit-call score of the fitted dose curve at least 0.9, where 1 is the maximum; inactive = score below 0.9.
VALUE KIND: AC50

Examples with answers:
Input `O=C(Cl)c1ccc(Cl)cc1Cl` , output reported AC50.
inactive

Input `OCC(F)(F)C(F)(F)C(F)(F)CO` , output reported AC50.
inactive

Input `O=C1OC(=O)c2ccc3c4c(ccc1c24)C(=O)OC3=O` , output reported AC50.
inactive

Input OCC(O)CC(F)(F)C(F)(F)C(F)(F)C(F)(F)F (stereo unspecified) , output reported AC50.
inactive

Input CCc1cccc(C)c1N(C(=O)C(=O)O)C(C)COC (stereo unspecified) , output reported AC50.
inactive

Input `CCCCOC(=O)[C@H](C)O` , output reported AC50.
inactive

Input `O=S(=O)(OCC(F)(F)F)C(F)(F)C(F)(F)C(F)(F)C(F)(F)F` , output reported AC50.
58.2 µM (active)

Input `O=C(F)C1(F)C(F)(F)C(F)(F)C(F)(F)C(F)(F)C1(F)F` , output reported AC50.
inactive

Input `Brc1ccccn1` , output reported AC50.
inactive

Input `OCCCCC(F)(F)C(F)(F)C(F)(F)C(F)(F)F` , output reported AC50.
inactive

Provide each entry's AC50 from the list below.
1. CCOC(=O)CC(=O)C(F)(F)C(F)(F)F
2. CC(=O)CCC(C)C
3. Oc1ccc(C2(c3ccc(O)c(C4CCCCC4)c3)CCCCC2)cc1C1CCCCC1
4. CC(C)(C)C(=O)C1C(=O)c2ccccc2C1=O
5. Cc1cc(O)c(C(C)(C)C)cc1C(C)(C)C
6. CO[Si](CCCOCC1CO1)(OC)OC (stereo unspecified)

1: inactive; 2: inactive; 3: inactive; 4: inactive; 5: inactive; 6: inactive

---

- MEASURED ON: Retinoic acid receptor RXR-alpha (Homo sapiens)
- PROTOCOL TEXT: OT_NURR1_NURR1RXRa_1440: Odyssey Thera (OT) 24-hour HEK293T Protein Complementation Assay for Nurr1/retinoid X receptor (RXR) (AID 2283386)
- Method: OT_NURR1_NURR1RXRa_1440 is a cell-based assay that uses HEK293T, a human kidney cell line, with measurements taken at 24 hours after chemical dosing in a 384-well plate.OT_NURR1_NURR1RXRa_1440 is one of one assay component(s) measured or calculated from the OT_NURR1_NURR1RXRa_1440 assay. […] This assay endpoint, OT_NURR1_NURR1RXRa_1440, was analyzed in the positive analysis fitting direction relative to DMSO as the negative control and baseline of activity. […]
Records with an inconclusive call do not appear. The source made the active and inactive calls. How the source made its calls: active means hit-call score of the fitted dose curve at least 0.9, where 1 is the maximum; inconclusive means response in the unintended direction; inactive means score below 0.9.
Please state which outcome applies, choosing from active, inactive

Lab log entry: `Cc1ccc(O)c(-n2nc3ccccc3n2)c1` — outcome as called in the assay?
inactive

***
Lab log entry: `F[Si-2](F)(F)(F)(F)F` — outcome as called in the assay?
inactive

Lab log entry: `CCCCCCCCCc1ccc(OCCO)cc1` — outcome as called in the assay?
active

Lab log entry: `CC(C)Nc1ccc(NC(C)C)c2c1C(=O)c1ccccc1C2=O` — outcome as called in the assay?
inactive

Lab log entry: `CCOC(OCC)OCC` — outcome as called in the assay?
inactive

---

- Read-out: Interleukin-8 (IL8), CXCL8 (gene 3576)
- PROTOCOL TEXT: BSK_LPS_IL8: BioMAP Diversity Plus: LPS Assay for Interleukin-8 (IL8) Biomarker Activity (AID 2283078)
- CONDITION CONTEXT: primary human HUVEC with PBMC; actives raise or lower the signal
Activity calls are given as the source filed them. Rule for the calls: active = hit-call score of the fitted dose curve at least 0.9, where 1 is the maximum; inactive = score below 0.9.
Please state which outcome applies, choosing from yes (1) = active, no (0) = inactive

Recorded results for 8 molecules are shown here.
Lab log entry: `CN(C(=O)C(F)(F)C(F)(F)C(F)(F)F)[Si](C)(C)C` — outcome as called in the assay?
no (0)

Lab log entry: `CCN(CC)c1ccc(C=O)cc1` — outcome as called in the assay?
no (0)

Lab log entry: `O=S(=O)(O)CCC(F)(F)C(F)(F)C(F)(F)C(F)(F)F` — outcome as called in the assay?
no (0)

Lab log entry: `FC(F)(F)C(F)(F)C(F)(F)C(F)(F)C(F)(F)C(F)(F)CC[Si](Cl)(Cl)Cl` — outcome as called in the assay?
no (0)

Lab log entry: `O=C(O)CCC(F)(F)C(F)(F)C(F)(F)C(F)(F)C(F)(F)C(F)(F)C(F)(F)F` — outcome as called in the assay?
no (0)

Lab log entry: `CCN(CC)c1ccc2c(c1)Oc1cc(N(CC)CC)ccc1C21OC(=O)c2ccccc21` — outcome as called in the assay?
yes (1)

Lab log entry: `O=S(=O)(OCC(F)(F)F)C(F)(F)C(F)(F)C(F)(F)C(F)(F)F` — outcome as called in the assay?
no (0)

Lab log entry: `NS(=O)(=O)C(F)(F)C(F)(F)C(F)(F)C(F)(F)C(F)(F)C(F)(F)F` — outcome as called in the assay?
no (0)

***
Lab log entry: `CO[Si](C)(CCC(F)(F)C(F)(F)C(F)(F)C(F)(F)C(F)(F)C(F)(F)F)OC` — outcome as called in the assay?
no (0)

Lab log entry: `OCCCCC(F)(F)C(F)(F)C(F)(F)C(F)(F)F` — outcome as called in the assay?
no (0)

---

- Read-out: Interleukin-8 (IL8), CXCL8 (gene 3576)
- PROTOCOL TEXT: BSK_LPS_IL8: BioMAP Diversity Plus: LPS Assay for Interleukin-8 (IL8) Biomarker Activity (AID 2283078)
- CONDITION CONTEXT: primary human HUVEC with PBMC; actives raise or lower the signal
Calls of active or inactive are those of the source. How the source made its calls: active means hit-call score of the fitted dose curve at least 0.9, where 1 is the maximum; inactive means score below 0.9.
Please state which outcome applies, choosing from yes = active, no = inactive

Recorded results for 3 compounds are shown here.
Lab log entry: `O=S(=O)(Cl)C(F)(F)C(F)(F)C(F)(F)C(F)(F)C(F)(F)C(F)(F)C(F)(F)C(F)(F)F` — outcome as called in the assay?
yes

Lab log entry: `OCC(F)(F)C(F)(F)C(F)(F)C(F)(F)C(F)(F)C(F)(F)CO` — outcome as called in the assay?
no

Lab log entry: `Cc1ccc(O)c(-n2nc3ccccc3n2)c1` — outcome as called in the assay?
no

***
Lab log entry: `C[Si](Cl)(Cl)CCC(F)(F)C(F)(F)C(F)(F)C(F)(F)C(F)(F)C(F)(F)F` — outcome as called in the assay?
no

Lab log entry: `C=CC(=O)OCC(F)(F)C(F)(F)C(F)(F)C(F)(F)C(F)(F)C(F)(F)C(F)(F)C(F)F` — outcome as called in the assay?
no

Lab log entry: `Brc1nc2ccccc2s1` — outcome as called in the assay?
no

Lab log entry: `CCN(CC)c1ccc(N=Nc2ccccc2)cc1` — outcome as called in the assay?
yes

Lab log entry: `O=C1C=CC(=O)N1c1ccc(Cc2ccc(N3C(=O)C=CC3=O)cc2)cc1` — outcome as called in the assay?
yes

Lab log entry: `CCOC(=O)CC(=O)C(F)(F)C(F)(F)F` — outcome as called in the assay?
no

Lab log entry: `O=C=Nc1cccc2c(N=C=O)cccc12` — outcome as called in the assay?
no

Lab log entry: `NC(=O)C(F)(F)C(F)(F)C(F)(F)C(F)(F)C(F)(F)C(F)(F)C(F)(F)F` — outcome as called in the assay?
no

---

- MEASURED ON: Luciferin 4-monooxygenase (Photinus pyralis) (UniProt P08659)
- Sequence (P08659 whole entry, looked up): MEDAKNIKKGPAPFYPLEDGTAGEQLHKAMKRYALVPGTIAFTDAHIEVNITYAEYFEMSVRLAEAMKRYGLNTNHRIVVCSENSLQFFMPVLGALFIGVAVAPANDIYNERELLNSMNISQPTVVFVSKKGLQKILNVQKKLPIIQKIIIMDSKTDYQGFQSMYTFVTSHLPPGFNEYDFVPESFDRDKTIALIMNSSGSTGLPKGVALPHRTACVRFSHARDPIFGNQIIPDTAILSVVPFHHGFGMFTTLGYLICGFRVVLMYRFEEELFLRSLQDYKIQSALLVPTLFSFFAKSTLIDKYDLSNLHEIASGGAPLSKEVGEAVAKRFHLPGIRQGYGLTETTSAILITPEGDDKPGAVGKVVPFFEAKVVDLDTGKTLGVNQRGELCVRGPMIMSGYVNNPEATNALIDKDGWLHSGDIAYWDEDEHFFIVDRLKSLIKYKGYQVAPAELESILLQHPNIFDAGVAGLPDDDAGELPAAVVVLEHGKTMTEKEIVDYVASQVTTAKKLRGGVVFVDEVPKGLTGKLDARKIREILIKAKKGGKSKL
- PROTOCOL TEXT: CCTE_Simmons_QuantiLum_inhib_2: CCTE's Firefly Luciferase Inhibition Assay, Simmons Lab (AID 2283767)
Records with an inconclusive call do not appear. Active and inactive are the calls of the source. Rule for the calls: active = hit-call score of the fitted dose curve at least 0.9, where 1 is the maximum; inconclusive = response in the unintended direction; inactive = score below 0.9.
VALUE KIND: outcome

Input `CCCCCCCCCc1ccc(OCCO)cc1` , output reported outcome.
inactive

Input `CCCCCCCCCCCCC[N+](C)(C)Cc1ccccc1` , output reported outcome.
inactive

Input `Cc1ccc(O)cn1` , output reported outcome.
inactive
